Data export: IC50 values recorded with Fatty-acid amide hydrolase 1 [33-574] (Rattus norvegicus).
Sequence (P97612 33-574): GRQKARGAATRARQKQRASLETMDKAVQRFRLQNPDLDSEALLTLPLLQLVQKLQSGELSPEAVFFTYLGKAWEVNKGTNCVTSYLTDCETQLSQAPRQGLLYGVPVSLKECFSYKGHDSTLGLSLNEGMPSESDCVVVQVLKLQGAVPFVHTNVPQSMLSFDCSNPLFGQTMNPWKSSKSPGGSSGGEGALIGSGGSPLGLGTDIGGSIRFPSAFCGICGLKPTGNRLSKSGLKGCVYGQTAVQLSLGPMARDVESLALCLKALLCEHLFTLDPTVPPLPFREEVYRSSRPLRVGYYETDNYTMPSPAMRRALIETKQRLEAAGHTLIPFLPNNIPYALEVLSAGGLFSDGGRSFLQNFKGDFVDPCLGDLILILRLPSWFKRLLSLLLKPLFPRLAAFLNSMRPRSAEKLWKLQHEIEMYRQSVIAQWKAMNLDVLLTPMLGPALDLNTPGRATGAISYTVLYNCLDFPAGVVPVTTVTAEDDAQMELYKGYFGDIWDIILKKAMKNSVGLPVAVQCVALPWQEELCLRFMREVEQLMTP

Some entries whose results are on file:
>  <Compound>
O[C@@H](c1ccccc1)C(F)(F)F

>  <System>
Fatty-acid amide hydrolase 1 [33-574] (Rattus norvegicus)

>  <IC50>
563 µM

$$$$
>  <Compound>
Cc1ccc(OC(=O)NC2CCCCC2)cc1-c1cccc(C(N)=O)c1

>  <System>
Fatty-acid amide hydrolase 1 [33-574] (Rattus norvegicus)

>  <IC50>
0.06 µM

$$$$
>  <Compound>
Nc1nc(F)nc2c1ncn2C1O[C@H](CO)[C@@H](O)[C@H]1O (stereo not given in full)

>  <System>
Fatty-acid amide hydrolase 1 [33-574] (Rattus norvegicus)

>  <IC50>
1130 µM

$$$$
>  <Compound>
O=C(O)C1(C(F)(F)F)CCC1

>  <System>
Fatty-acid amide hydrolase 1 [33-574] (Rattus norvegicus)

>  <IC50>
465 µM

$$$$
>  <Compound>
O=C(O)c1cc(=O)cc(C(F)(F)F)o1

>  <System>
Fatty-acid amide hydrolase 1 [33-574] (Rattus norvegicus)

>  <IC50>
137 µM

$$$$

According to the records, this compound OC(c1ccc(Cl)cc1)C(F)(F)F (stereo not given) displays IC50 of 143 µM

// O=C(O)Cn1ccc(C(F)(F)F)n1 : IC50 value = 147 µM

Value of measured IC50 for the entry FC(F)(F)c1ccccc1N1CCNCC1 : 4.2 µM

Item: NCc1cccc(C(F)(F)F)c1 | IC50: 270 µM

Recorded result, O=C(n1nc2ccccc2n1)C(F)(F)F , IC50: 400 µM
